tested-on: Indoleamine 2,3-dioxygenase (Homo sapiens)
Construct: endogenous in cells
protocol-description: SKOV-3 cellular Indoleamine 2,3-dioxygenase assay
run-parameters: SKOV-3 cells, 50 ng/ml Interferon gamma, 100 μM L-Tryptophan, 24 hours, N-Formylkynurenin fluorescence detection; read-out: cell based activity
reported-endpoint: IC50

Some compounds with recorded IC50:
>>> print(df.to_string())
                              smiles_record   readout_value
0   NC(=O)CCCOc1nonc1C(=NO)Nc1ccc(F)c(Cl)c1  100 to 1000 nM
1  NS(=O)(=O)c1ccc(C(=O)NCCSc2nonc2C(=NO)Nc2ccc(F)c(C(F)F)c2)cc1        < 100 nM

Okay, now this compound:
Param item = O=C(NCCSc1nonc1C(=NO)Nc1ccc(F)c(C(F)F)c1)c1ccc(C2(O)COC2)cc1 ; retrieve measured IC50.
< 100 nM

###

tested-on: Indoleamine 2,3-dioxygenase (Homo sapiens)
Construct: endogenous in cells
protocol-description: SKOV-3 cellular Indoleamine 2,3-dioxygenase assay
run-parameters: SKOV-3 cells, 50 ng/ml Interferon gamma, 100 μM L-Tryptophan, 24 hours, N-Formylkynurenin fluorescence detection; read-out: cell based activity
Experimental: SKOV-3 cellular Indoleamine 2,3-dioxygenase assay SKOV-3 cells were obtained from the American Type Culture Collection (ATCC® HTB-77™) and maintained in McCoy's medium (Pan Biotech) supplemented with 10% fetal bovine serum and 1% Penicilin/Streptomycin. Cells were kept at 37° C. in a humidified incubator with 5% CO2. […]
Property: IC50; scope: individual compounds

Provide the documented IC50 with Indoleamine 2,3-dioxygenase (Homo sapiens) as the system for CC(CSc1nonc1C(=NO)Nc1ccc(F)c(C(F)F)c1)NC(=O)CS(N)(=O)=O (single isomer, unassigned)
< 100 nM

###

tested-on: Indoleamine 2,3-dioxygenase (Homo sapiens)
Construct: endogenous in cells
protocol-description: SKOV-3 cellular Indoleamine 2,3-dioxygenase assay
run-parameters: SKOV-3 cells, 50 ng/ml Interferon gamma, 100 μM L-Tryptophan, 24 hours, N-Formylkynurenin fluorescence detection; read-out: cell based activity
reported-endpoint: IC50

Some compounds with recorded IC50:
>>> df
                                   compound                                 tested_on  reported_endpoint   readout_value
0  Cc1nnc(NCCSc2nonc2C(=NO)Nc2ccc(F)c(C(F)F)c2)o1  Indoleamine 2,3-dioxygenase (Homo sapiens)               IC50        < 100 nM
1  O=C(NCCSc1nonc1C(=NO)Nc1ccc(F)c(Cl)c1)c1ccc(C(O)(C(F)(F)F)C(F)(F)F)cc1  Indoleamine 2,3-dioxygenase (Homo sapiens)               IC50  100 to 1000 nM
2  Nc1nnc(NCCSc2nonc2C(=NO)Nc2ccc(F)c(C(F)F)c2)[nH]1  Indoleamine 2,3-dioxygenase (Homo sapiens)               IC50  100 to 1000 nM
3  NC(=O)CCS(=O)(=O)NCCSc1nonc1C(=NO)Nc1ccc(F)c(C(F)F)c1  Indoleamine 2,3-dioxygenase (Homo sapiens)               IC50        < 100 nM

Okay, now this compound:
Param item = CS(=N)(=O)CC(=O)NCCSc1nonc1C(=NO)Nc1ccc(F)c(C(F)(F)F)c1 (stereo not shown) ; retrieve measured IC50.
< 100 nM

###

tested-on: Indoleamine 2,3-dioxygenase (Homo sapiens, UniProt P14902)
Construct: endogenous in cells
Sequence (P14902 whole entry): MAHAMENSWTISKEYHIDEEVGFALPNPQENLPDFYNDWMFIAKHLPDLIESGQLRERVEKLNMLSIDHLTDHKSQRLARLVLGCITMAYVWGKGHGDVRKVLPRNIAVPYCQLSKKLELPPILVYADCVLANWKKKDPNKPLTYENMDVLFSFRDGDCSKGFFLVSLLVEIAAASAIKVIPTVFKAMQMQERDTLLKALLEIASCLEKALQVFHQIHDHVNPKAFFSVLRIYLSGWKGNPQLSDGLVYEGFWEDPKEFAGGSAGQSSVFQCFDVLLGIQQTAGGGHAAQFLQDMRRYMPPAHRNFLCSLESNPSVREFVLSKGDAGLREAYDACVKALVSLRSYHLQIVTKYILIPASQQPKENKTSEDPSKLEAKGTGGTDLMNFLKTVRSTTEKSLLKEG
protocol-description: SKOV-3 cellular Indoleamine 2,3-dioxygenase assay
run-parameters: SKOV-3 cells, 50 ng/ml Interferon gamma, 100 μM L-Tryptophan, 24 hours, N-Formylkynurenin fluorescence detection; read-out: cell based activity
pIC50: −log10 of the molar value.
Property: pIC50; scope: individual compounds

Some compounds with recorded pIC50:
>>> df
                                   compound  readout_value
0  NS(=O)(=O)c1ccc(C(=O)NCCSc2nonc2C(=NO)Nc2cccc(C(F)F)c2)cc1 [117/15]         > 7.00
1  NC(=O)CNS(=O)(=O)NCCSc1nonc1C(=NO)Nc1ccc(F)c(C(F)F)c1 [119/6]         > 7.00
2  NS(=O)(=O)CCC(=O)NCCSc1nonc1C(=NO)Nc1ccc(F)c(C(F)(F)F)c1 [107/35]         > 7.00
3  O=C(NCCOc1nonc1C(=NO)Nc1ccc(F)c(Cl)c1)N1C[C@@H](O)[C@@H](O)C1 [Example 18]   6.00 to 7.00
4  NS(=O)(=O)CCC(=O)NCCSc1nonc1C(=NO)Nc1ccc(F)c(C(F)F)c1 [107/36]         > 7.00

Okay, now this compound:
Provide the documented pIC50 with Indoleamine 2,3-dioxygenase (Homo sapiens, UniProt P14902) as the system for NC(=O)N1CC(O)(C(=O)NCCSc2nonc2C(=NO)Nc2ccc(F)c(C(F)F)c2)C1 [128/4]
6.00 to 7.00

###

tested-on: Indoleamine 2,3-dioxygenase (Homo sapiens)
Construct: endogenous in cells
protocol-description: SKOV-3 cellular Indoleamine 2,3-dioxygenase assay
run-parameters: SKOV-3 cells, 50 ng/ml Interferon gamma, 100 μM L-Tryptophan, 24 hours, N-Formylkynurenin fluorescence detection; read-out: cell based activity
pIC50: −log10 of the molar value.
reported-endpoint: pIC50

Some compounds with recorded pIC50:
>>> print(df.to_string())
                              smiles_record  reported_endpoint  readout_value
0  CC1(O)CN(CCSc2nonc2C(=NO)Nc2ccc(F)c(C(F)F)c2)C1              pIC50         > 7.00
1       ON=C(Nc1ccc(F)c(Br)c1)c1nonc1SC1CC1              pIC50         > 7.00

Param item = NS(=O)(=O)NCCOc1nonc1C(=NO)Nc1cccc(C(F)F)c1 ; retrieve measured pIC50.
6.00 to 7.00

Ok, now O=C(NCCOc1nonc1C(=NO)Nc1ccc(F)c(Cl)c1)C1(O)CNC1
6.00 to 7.00

###

tested-on: Indoleamine 2,3-dioxygenase (Homo sapiens, UniProt P14902)
Construct: endogenous in cells
protocol-description: SKOV-3 cellular Indoleamine 2,3-dioxygenase assay
run-parameters: SKOV-3 cells, 50 ng/ml Interferon gamma, 100 μM L-Tryptophan, 24 hours, N-Formylkynurenin fluorescence detection; read-out: cell based activity
pIC50: −log10 of the molar value.
Property: pIC50; scope: individual compounds

Some compounds with recorded pIC50:
>>> df
                                   compound  readout_value
0  COC1(C(=O)NCCSc2nonc2C(=NO)Nc2ccc(F)c(C(F)F)c2)CNC1 [123/2]         > 7.00
1  O=C(NCCOc1nonc1C(=NO)Nc1ccc(F)c(Cl)c1)C1CC1 [9/3]         > 7.00
2  NC(=O)CC(=O)NCCSc1nonc1C(=NO)Nc1cccc(C(F)(F)F)c1 [119/1]         > 7.00
3  O=C(O)c1ccc(C(=O)NCCOc2nonc2C(=NO)Nc2ccc(F)c(Cl)c2)cc1 [9/9]         < 6.00
4  CS(=O)(=O)CCC(=O)NCCSc1nonc1/C(=N/O)Nc1ccc(F)c(Br)c1 [107/41]         > 7.00

Param item = Cn1nc(C(=O)NCCSc2nonc2C(=NO)Nc2ccc(F)c(C(F)F)c2)[nH]c1=O [117/17] ; retrieve measured pIC50.
6.00 to 7.00

Ok, now O=C(NCCSc1nonc1C(=NO)Nc1ccc(F)c(Cl)c1)c1nnn[nH]1 [Example 117]
6.00 to 7.00

Ok, now Nc1c(NCCOc2nonc2C(=NO)Nc2ccc(F)c(Cl)c2)c(=O)c1=O [Example 2]
> 7.00

Ok, now ON=C(Nc1ccc(F)c(Br)c1)c1nonc1SCC(F)(F)F [Example 103/2]
> 7.00

###

tested-on: Indoleamine 2,3-dioxygenase (Homo sapiens, UniProt P14902)
Construct: endogenous in cells
protocol-description: SKOV-3 cellular Indoleamine 2,3-dioxygenase assay
run-parameters: SKOV-3 cells, 50 ng/ml Interferon gamma, 100 μM L-Tryptophan, 24 hours, N-Formylkynurenin fluorescence detection; read-out: cell based activity
reported-endpoint: IC50

In [3]: df
Out[3]:
                              smiles_record   readout_value
0  Nc1c(NCCOc2nonc2C(=NO)Nc2ccc(F)c(Br)c2)c(=O)c1=O        < 100 nM
1  O=C(NCCSc1nonc1C(=NO)Nc1ccc(F)c(Cl)c1)c1ccc(C(=O)O)nc1       > 1000 nM
2  O=C(NCCSc1nonc1C(=NO)Nc1ccc(F)c(C(F)F)c1)c1ccc(-n2cnnc2)cc1  100 to 1000 nM

Param item = CS(=O)(=O)CCC(=O)NCCSc1nonc1C(=NO)Nc1ccc(F)c(C(F)F)c1 ; retrieve measured IC50.
< 100 nM

Ok, now Nc1c(NCCSc2nonc2C(=NO)Nc2cccc(C(F)F)c2)c(=O)c1=O
< 100 nM

Entry source: patent US11078168B2
